assayedTarget: Heat shock factor protein 1 (Mus musculus)
Sequence (P38532 whole entry): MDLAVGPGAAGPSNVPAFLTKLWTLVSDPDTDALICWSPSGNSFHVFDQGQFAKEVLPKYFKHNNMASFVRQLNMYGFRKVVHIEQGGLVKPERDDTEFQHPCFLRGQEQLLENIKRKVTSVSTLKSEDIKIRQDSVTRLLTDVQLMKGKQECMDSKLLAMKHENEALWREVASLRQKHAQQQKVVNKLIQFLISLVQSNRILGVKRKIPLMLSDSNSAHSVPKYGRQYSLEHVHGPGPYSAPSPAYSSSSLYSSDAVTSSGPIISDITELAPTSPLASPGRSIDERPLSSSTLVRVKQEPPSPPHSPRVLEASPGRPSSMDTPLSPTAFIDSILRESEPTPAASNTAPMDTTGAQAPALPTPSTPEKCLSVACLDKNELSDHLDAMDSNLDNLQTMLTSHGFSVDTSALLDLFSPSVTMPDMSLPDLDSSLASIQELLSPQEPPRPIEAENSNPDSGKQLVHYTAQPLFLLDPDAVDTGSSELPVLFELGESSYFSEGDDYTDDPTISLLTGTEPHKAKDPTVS
methodDescription: inhibition of MG132-induced HSE-luciferase signal, confirmation, cell-based, NIH3T3, luminescence, dose retest (AID 2382);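 further: NIH3T3 fibroblasts with HSF1-driven luciferase reporter stressed by proteasome inhibitor MG132; luminescence from HSF1-driven luciferase expression after 8 hours of MG132 stress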
Assay type: functional
Activity calls are given as the source filed them. No stated cut-off is given here; in the data, actives have a measured EC50 and inactives only a lower limit.
reportedProperty: EC50

> print(dat)
                                    compound  reportedproperty          endpointvalue
 1  CCOC(=O)N1CCC(Nc2ncnc3c2cnn3-c2ccc(Cl)cc2)CC1              EC50       89.4 µM (active)
 2        C/C(=N\Nc1nc(-c2ccccc2)cs1)c1cccs1              EC50  > 195 µM (not active)
 3                   CC1=NN(C(N)=S)C(C)(C)C1              EC50  > 195 µM (not active)
 4  COc1cccc(N2C(=O)N(c3ccccc3)C3CS(=O)(=O)CC32)c1 (centres undefined)              EC50  > 195 µM (not active)
 5  OCC[C@@H]1C[C@@H](O)[C@H](O)[C@@]2(Cc3ccccc3CO2)O1              EC50  > 195 µM (not active)
 6  COc1ccc(-n2c(-c3cccc(OC)c3)nc(=S)c3c2CCCC3)cc1              EC50  > 195 µM (not active)
 7         Cc1ccc(S(=O)(=O)Nc2cccnc2)c(C)c1C              EC50  > 195 µM (not active)
 8  COc1ccc(C(=O)Nc2ccccc2C(=O)N/N=C/c2ccc(O)c(OC)c2)cc1              EC50     < 0.16 µM (active)
 9  Cc1ccc([N+](=O)[O-])cc1NC(=O)CSc1n[nH]c(-c2cccnc2)n1              EC50  > 195 µM (not active)
10  COc1ccc(CN2CCN(S(=O)(=O)c3ccccc3)CC2)cc1Br              EC50  > 195 µM (not active)
11            CC(C)CCNC(=O)Cn1cc2c(n1)CCCCC2              EC50  > 195 µM (not active)
12      COc1cc(/C=N/O)ccc1OCc1ccc(C(=O)O)cc1              EC50       1.78 µM (active)
13  O=C1C=CC(O)(c2cc(=O)c3c(O)cc(O)cc3o2)C=C1              EC50       4.28 µM (active)
14         C=CCn1c2ccccc2c2nnc(SCC(=O)O)nc21              EC50  > 195 µM (not active)
